Data provenance is the antibiotic and cytotoxicity screens of Wong et al. (2023).

Test system: HepG2
test.description: cytotoxicity call (relative viability < 0.9)
experimental.setup: 10 µM
In all, about 39,000 compounds went through this assay and about 3,300 (8.5%) were called active. This excerpt belongs to a sample that is enriched for actives.
Field 'call' accepts Y for active, N for inactive

# example entries with known answers
[Q] Record lookup: outcome of this test for C[C@H](CO)N1C[C@H](C)[C@@H](CN(C)S(=O)(=O)c2cn(C)cn2)Oc2c(NC(=O)Cc3ccccc3)cccc2C1=O ?
[A] N

[Q] What is the recorded call for this compound in the test? CC(C)CC#Cc1ccc2c(c1)O[C@@H](CN(C)C(=O)Cc1ccccn1)[C@@H](C)CN([C@@H](C)CO)S2(=O)=O
[A] N

[Q] Could you check what this test reported for Cc1ncc([N+](=O)[O-])n1CCO ?
[A] N

[Q] What did this assay record as the result for C[C@@H]1CN([C@H](C)CO)C(=O)c2cccc(NS(C)(=O)=O)c2O[C@H]1CN(C)C(=O)Nc1ccc(F)cc1 ?
[A] N

[Q] Outcome? C[C@H]1CCCCO[C@@H](CN(C)Cc2ccc(C(F)(F)F)cc2)[C@@H](C)CN([C@@H](C)CO)C(=O)c2cc(NS(=O)(=O)c3ccc(Cl)cc3)ccc2O1
[A] N

Continuing:
[Q] For COc1ccc(N2C(=O)C[C@@H](c3ccc(Br)cc3)[C@H]2C(=O)Nc2cccc3cccnc23)cc1 , which call appears in the assay record?
[A] N

[Q] Identify the outcome logged in this assay for the compound shown: C[C@@H]1CCCCO[C@@H](CN(C)Cc2ccc(C(F)(F)F)cc2)[C@H](C)CN([C@@H](C)CO)C(=O)c2cc(NS(=O)(=O)c3ccc(Cl)cc3)ccc2O1
[A] Y

[Q] Answer briefly: the call reported for C[C@@H]1CN([C@H](C)CO)C(=O)c2cc(NC(=O)c3ccccc3)ccc2O[C@@H](C)CCCCO[C@@H]1CN(C)C(=O)Cc1ccccc1 in this assay.
[A] N

[Q] Hi, do you know how Cc1ccc(S(=O)(=O)N[C@@H](Cc2ccccc2)C(=O)NCCn2cc(-c3ccc(C(=O)NO)s3)nn2)cc1 came out in this test?
[A] N

[Q] Fill in: this test's call for CO[C@H]1CN(C)C(=O)c2cc(NC(=O)c3ccc(F)cc3)ccc2OC[C@@H](C)N(C(=O)CN(C)C)C[C@H]1C is ___
[A] N

[Q] What outcome does the record of this test show for Cc1noc(C)c1S(=O)(=O)N(C)C[C@H]1Oc2ccc(NC(=O)c3ccncc3)cc2CC(=O)N([C@H](C)CO)C[C@@H]1C ?
[A] N

[Q] Called result for C[C@@H]1CCCCO[C@H](CN(C)S(=O)(=O)c2ccc(F)cc2)[C@@H](C)CN([C@@H](C)CO)C(=O)c2cc(NC(=O)C3CCCCC3)ccc2O1
[A] N

[Q] Dear all, I need the recorded test outcome for C[C@H]1CN([C@@H](C)CO)C(=O)c2cc(NC(=O)C3CC3)ccc2O[C@H]1CN(C)C(=O)NC1CCCCC1 , thank you.
[A] N

[Q] Would you mind telling me which call this test gave C[C@@H]1CCCCO[C@H](CN(C)Cc2ccc(C(F)(F)F)cc2)[C@@H](C)CN([C@H](C)CO)C(=O)c2cc(NS(=O)(=O)c3ccc(Cl)cc3)ccc2O1 ?
[A] Y

[Q] Hey, what did the test say about CC(C)NCCCn1c(Sc2cc3c(cc2I)OCO3)nc2c(N)ncnc21 ?
[A] Y

[Q] Recorded call for C[C@@H]1CCCCO[C@@H](CN(C)C(=O)Nc2ccc(C(F)(F)F)cc2)[C@@H](C)CN([C@H](C)CO)C(=O)c2cc(NS(=O)(=O)c3ccc(F)cc3)ccc2O1 ?
[A] Y

[Q] Please share the test call associated with C[C@@H]1CCCCO[C@@H](CN(C)C(=O)Nc2ccc(C(F)(F)F)cc2)[C@H](C)CN([C@@H](C)CO)C(=O)c2cc(NS(=O)(=O)c3ccc(F)cc3)ccc2O1 .
[A] Y

[Q] GET /call?item= C[C@H](CO)N1C[C@H](C)[C@@H](CN(C)C(=O)C2CC2)Oc2ncc(-c3ccc(C(=O)N(C)C)cc3)cc2C1=O returns the recorded outcome of this test.
[A] N

[Q] I would be grateful if you could indicate the recorded call for O=C(C[C@@H]1C=C[C@@H](NC(=O)C2CCC2)[C@H](CO)O1)NCCCN1CCOCC1 .
[A] N
